System: Pseudomonas aeruginosa (POA 286)
experimentSummary: Microplate Alamar Blue Assay, Pseudomonas aeruginosa
Type: cell-based
conditionContext: Pseudomonas aeruginosa; 200 μg/mL; NI = No inhibition; read-out: Percentage (%) Inhibition, Pseudomonas aerugenosa
Exercise: for every item that follows, state its recorded inhibition at 200 µg/mL.
Unit % implied. Number only.

Prompt: Look up inhibition at 200 µg/mL: Cc1ccc(C(=O)Nc2ccc(S(=O)(=O)Nc3nc(C)cc(C)n3)cc2)cc1 [Compound 34]
Completion: 15.4

Prompt: // lookup inhibition at 200 µg/mL for Cc1cc(C)nc(NS(=O)(=O)c2ccc(NC(=O)c3ccccc3C)cc2)n1 [Compound 35]
Completion: 16.5

Prompt: # lookup: inhibition at 200 µg/mL of Cc1cc(C)nc(NS(=O)(=O)c2ccc(NC(=O)c3cc(Cl)ccc3Cl)cc2)n1 [Compound 23]
Completion: 1.54

Prompt: Can you share its inhibition at 200 µg/mL? I mean this molecule: Cc1cc(C)nc(NS(=O)(=O)c2ccc(NC(=O)C(Br)CBr)cc2)n1 (stereo not shown) [Compound 3]
Completion: 5.93

Prompt: Tell me the measured inhibition at 200 µg/mL of Cc1cc(C)nc(NS(=O)(=O)c2ccc(NC(=O)c3ccccc3Br)cc2)n1 [Compound 28] , please.
Completion: 3.99

Prompt: Would you mind telling me what inhibition at 200 µg/mL value was observed for Cc1cc(C)nc(NS(=O)(=O)c2ccc(NC(=O)C(C)Cl)cc2)n1 (stereo not shown) [Compound 11] ?
Completion: 26.5

Prompt: Sample Cc1cc(C)nc(NS(=O)(=O)c2ccc(NC(=O)c3ccc(Cl)cc3)cc2)n1 [Compound 22] — what was its inhibition at 200 µg/mL?
Completion: 9.78
